Experiment: 7-day repeated oral gavage, body weights of ICR mice
Type: in vivo
Details: Day 2, 1 mg/kg oral QD, n=10
RECORDED ENDPOINT: Weight Gain compared with Day 0 (g)
Just the number please, in g, no unit attached.

{"MOLECULE": "[2H]c1c([2H])c([2H])c(-c2nc(CCOc3ccc(C[C@H](OC)C(=O)O)c4sccc34)c(C)o2)c([2H])c1[2H] (single isomer, unassigned) [Compound 4]", "Weight Gain compared with Day 0 [g]": 1.45}
{"MOLECULE": "[2H]c1cccc([2H])c1-c1nc(CC([2H])([2H])Oc2ccc(C[C@H](OC)C(=O)O)c3sccc23)c(C)o1 (single isomer, unassigned) [Compound 10]", "Weight Gain compared with Day 0 [g]": 1.63}
{"MOLECULE": "[2H]C([2H])(Cc1nc(-c2ccccc2)oc1C)Oc1ccc(C[C@H](OC)C(=O)O)c2sccc12 (single isomer, unassigned) [Compound 2]", "Weight Gain compared with Day 0 [g]": 1.57}

Task: # query: Weight Gain compared with Day 0 of entry CO[C@@H](Cc1ccc(OCCc2nc(-c3ccccc3)oc2C)c2ccsc12)C(=O)O [Aleglitazar, aleglitazar, reference compound]
Result: 1.64

* * *

Assay: 7-day repeated oral gavage, body weights of ICR mice
Assay type: in vivo
Conditions: Day 6, 1 mg/kg oral QD, n=10
Source text: After 3 days of acclimatization, ICR mice were grouped according to their body weights. The day of grouping is designated as Day 0. […] The animals were weighed and recorded daily.
Listed here are compounds together with their documented Weight Gain compared with Day 0.
Just the number please, in g, no unit attached.

Task: # query: Weight Gain compared with Day 0 of entry [2H]c1cccc([2H])c1-c1nc(CC([2H])([2H])Oc2ccc(C[C@H](OC)C(=O)O)c3sccc23)c(C)o1 (single isomer, unassigned)
Result: 5.75

Task: # query: Weight Gain compared with Day 0 of entry CO[C@@H](Cc1ccc(OCCc2nc(-c3ccccc3)oc2C)c2ccsc12)C(=O)O [Aleglitazar, aleglitazar, reference compound]
Result: 4.98

Task: # query: Weight Gain compared with Day 0 of entry [2H]c1c([2H])c([2H])c(-c2nc(CCOc3ccc(C[C@H](OC)C(=O)O)c4sccc34)c(C)o2)c([2H])c1[2H] (single isomer, unassigned)
Result: 5.36

Task: # query: Weight Gain compared with Day 0 of entry [2H]C([2H])(Cc1nc(-c2ccccc2)oc1C)Oc1ccc(C[C@H](OC)C(=O)O)c2sccc12 (single isomer, unassigned)
Result: 4.84

* * *

Experiment: 7-day repeated oral gavage, body weights of ICR mice
Type: in vivo
Settings: Day 4, 1 mg/kg oral QD, n=10
Listed here are compounds together with their documented Weight Gain compared with Day 0.

Worked examples follow.
{"COMPOUND": "CO[C@@H](Cc1ccc(OCCc2nc(-c3ccccc3)oc2C)c2ccsc12)C(=O)O [Aleglitazar, aleglitazar, reference compound]", "Weight Gain compared with Day 0": "3.33 ± 0.54 g"}
{"COMPOUND": "[2H]c1cccc([2H])c1-c1nc(CC([2H])([2H])Oc2ccc(C[C@H](OC)C(=O)O)c3sccc23)c(C)o1 (single isomer, unassigned)", "Weight Gain compared with Day 0": "3.85 ± 0.38 g"}
{"COMPOUND": "[2H]c1c([2H])c([2H])c(-c2nc(CCOc3ccc(C[C@H](OC)C(=O)O)c4sccc34)c(C)o2)c([2H])c1[2H] (single isomer, unassigned)", "Weight Gain compared with Day 0": "3.71 ± 0.46 g"}

Let's switch to this compound now.
Task: # query: Weight Gain compared with Day 0 of entry [2H]C([2H])(Cc1nc(-c2ccccc2)oc1C)Oc1ccc(C[C@H](OC)C(=O)O)c2sccc12 (single isomer, unassigned)
Result: 3.61 ± 0.19 g

* * *

Assay: 7-day repeated oral gavage, body weights of ICR mice
Format: in vivo
Settings: Day 5, 1 mg/kg oral QD, n=10
Listed here are compounds together with their documented Weight Gain compared with Day 0.
Just the number please, in g, no unit attached.

Worked examples follow.
{"COMPOUND": "[2H]c1c([2H])c([2H])c(-c2nc(CCOc3ccc(C[C@H](OC)C(=O)O)c4sccc34)c(C)o2)c([2H])c1[2H] (single isomer, unassigned) [Compound 4]", "OUTPUT UNIT": "g", "Weight Gain compared with Day 0": 4.26}
{"COMPOUND": "[2H]c1cccc([2H])c1-c1nc(CC([2H])([2H])Oc2ccc(C[C@H](OC)C(=O)O)c3sccc23)c(C)o1 (single isomer, unassigned) [Compound 10]", "OUTPUT UNIT": "g", "Weight Gain compared with Day 0": 4.59}
{"COMPOUND": "CO[C@@H](Cc1ccc(OCCc2nc(-c3ccccc3)oc2C)c2ccsc12)C(=O)O [Aleglitazar, aleglitazar, reference compound]", "OUTPUT UNIT": "g", "Weight Gain compared with Day 0": 3.86}

Task: # query: Weight Gain compared with Day 0 of entry [2H]C([2H])(Cc1nc(-c2ccccc2)oc1C)Oc1ccc(C[C@H](OC)C(=O)O)c2sccc12 (single isomer, unassigned) [Compound 2]
Result: 3.96
